Listing: pIC50 of selected compounds
biological target: Nitric oxide synthase 1 (Rattus norvegicus); assay: Inhibition of conversion of [3H]L-Arg to [3H]L-citrulline catalyzed by neuronal NOS (n NOS) from rat cerebellum
Sequence (P29476 whole entry): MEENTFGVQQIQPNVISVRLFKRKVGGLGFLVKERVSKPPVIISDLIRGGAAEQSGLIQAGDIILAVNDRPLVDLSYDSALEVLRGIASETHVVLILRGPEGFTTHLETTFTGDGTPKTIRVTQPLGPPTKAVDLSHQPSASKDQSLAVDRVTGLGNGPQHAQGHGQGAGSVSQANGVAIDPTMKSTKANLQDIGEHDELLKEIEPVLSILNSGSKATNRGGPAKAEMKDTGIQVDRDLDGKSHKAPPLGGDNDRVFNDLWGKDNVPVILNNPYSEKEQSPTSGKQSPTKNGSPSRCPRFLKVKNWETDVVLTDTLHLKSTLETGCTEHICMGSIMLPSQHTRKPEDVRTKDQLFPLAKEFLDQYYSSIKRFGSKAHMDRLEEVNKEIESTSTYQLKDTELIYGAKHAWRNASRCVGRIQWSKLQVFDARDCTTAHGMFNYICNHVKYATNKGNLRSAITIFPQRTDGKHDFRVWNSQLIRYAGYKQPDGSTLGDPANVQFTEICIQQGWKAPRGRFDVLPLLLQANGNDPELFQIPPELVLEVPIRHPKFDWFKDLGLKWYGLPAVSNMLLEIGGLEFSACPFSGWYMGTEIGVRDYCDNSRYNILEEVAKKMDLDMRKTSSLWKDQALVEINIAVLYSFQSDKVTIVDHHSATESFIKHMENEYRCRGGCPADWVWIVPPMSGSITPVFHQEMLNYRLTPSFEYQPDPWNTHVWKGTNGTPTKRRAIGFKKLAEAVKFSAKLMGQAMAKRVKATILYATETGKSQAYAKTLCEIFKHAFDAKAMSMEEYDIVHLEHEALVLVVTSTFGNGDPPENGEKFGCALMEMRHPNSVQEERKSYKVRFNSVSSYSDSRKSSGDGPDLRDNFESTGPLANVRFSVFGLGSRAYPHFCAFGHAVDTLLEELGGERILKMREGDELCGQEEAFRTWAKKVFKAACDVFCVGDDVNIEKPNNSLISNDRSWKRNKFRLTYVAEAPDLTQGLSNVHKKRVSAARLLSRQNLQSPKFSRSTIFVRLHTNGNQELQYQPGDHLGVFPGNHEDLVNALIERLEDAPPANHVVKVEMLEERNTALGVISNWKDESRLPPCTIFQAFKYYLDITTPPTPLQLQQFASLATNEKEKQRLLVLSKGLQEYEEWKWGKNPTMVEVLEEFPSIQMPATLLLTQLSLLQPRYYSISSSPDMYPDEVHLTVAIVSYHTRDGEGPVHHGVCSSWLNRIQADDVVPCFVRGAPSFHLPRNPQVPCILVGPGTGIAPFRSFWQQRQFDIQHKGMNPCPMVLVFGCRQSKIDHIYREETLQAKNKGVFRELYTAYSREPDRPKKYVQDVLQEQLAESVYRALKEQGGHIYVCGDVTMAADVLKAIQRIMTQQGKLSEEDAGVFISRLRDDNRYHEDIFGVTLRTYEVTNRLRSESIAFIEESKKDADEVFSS
Just so you know, pIC50 here is -log10 of the concentration in molar units; reply with that number alone.

Examples with their reported pIC50 follow.
- compound: "CC1Cc2ccccc2C(N)=N1 (centres undefined)"
  targetSystem: "Nitric oxide synthase 1 (Rattus norvegicus)"
  pIC50: 5.52
- compound: "NC1=NC(c2ccc(F)cc2)Cc2c(F)cccc21 (centres undefined)"
  targetSystem: "Nitric oxide synthase 1 (Rattus norvegicus)"
  pIC50: 5.30
- compound: "NC1=NC(C2CC2)Cc2ccccc21 (centres undefined)"
  targetSystem: "Nitric oxide synthase 1 (Rattus norvegicus)"
  pIC50: 5.82

Measured on Nitric oxide synthase 1 (Rattus norvegicus), CC(=N)NCCCC[C@H](N)C(=O)O has a documented pIC50 of 5.80

Measured on Nitric oxide synthase 1 (Rattus norvegicus), NC1=NC(c2ccccc2)Cc2ccccc21 (centres undefined) has a documented pIC50 of 4.92

Measured on Nitric oxide synthase 1 (Rattus norvegicus), NC1=NC(c2ccco2)Cc2ccccc21 (centres undefined) has a documented pIC50 of 6.05

Measured on Nitric oxide synthase 1 (Rattus norvegicus), N=C(N)NN has a documented pIC50 of 5.22

Measured on Nitric oxide synthase 1 (Rattus norvegicus), NC1=NC(c2cccc(F)c2)Cc2ccccc21 (centres undefined) has a documented pIC50 of 5.00

Measured on Nitric oxide synthase 1 (Rattus norvegicus), NC1=NC(c2nccs2)Cc2ccccc21 (centres undefined) has a documented pIC50 of 5.10

Measured on Nitric oxide synthase 1 (Rattus norvegicus), NC1=NC(c2ccc(F)cc2)Cc2cc(F)ccc21 (centres undefined) has a documented pIC50 of 4.70
